tested on: RXF 393; assay: NCI tumour cell line growth inhibition, 48 h
Active and inactive are the calls of the source. No stated cut-off is given here; in the data, active = GI50 up to about 1.1 µM and inactive = higher.
Hello, when you answer, please use one of the following outcomes: active, inactive

Worked cases, answers included:
{"compound": "COc1ccc(CNC(C)C(=O)O)cc1 (stereo unspecified)", "labelClass": "inactive"}
{"compound": "CCOC(=O)COS(=O)(=O)C(F)(F)F", "labelClass": "inactive"}

Which outcome was entered for the compound COCC(=O)OC1CCn2c1nc1c2C(=O)C(C)=C(NC(C)=O)C1=O (stereo unspecified) in this test?
inactive

Entry CC(=O)O[C@H]1CC[C@@]2(C)[C@@H](CC[C@@H]3[C@@H]2CC(=O)[C@@]2(C)[C@H]3C[C@@H]3CC(C)=CC(=O)[C@@H]32)C1 please
inactive

Entry Cc1ccc(-c2cc(=O)c3cc(C)c(C)c(C(=O)O)c3o2)cc1N please
inactive

Entry CCN(CC)CCN(C)c1ccc(CO)c2c1c(=O)c1ccccc1[s+]2[O-] (stereo unspecified) please
inactive

Entry COC(=O)c1c(OC(C)=O)ccc2c1c1c(OC(C)=O)c3ccccc3c(OC(C)=O)c1n2Cc1cc(OC)cc(OC)c1 please
inactive

Entry CC(C)(C)OC(=O)NC(Cc1ccc(OCc2ccccc2)cn1)C(=O)O (stereo unspecified) please
inactive

Entry CCCCCCCCCCOc1ccc(/N=N/c2nnc(-c3ccc(OCCCCC)cc3)s2)cc1 please
inactive

Entry Nc1ccc(-c2nc3cc(F)ccc3s2)cc1CO please
inactive

Entry CC(=O)Nc1cccc(N2C(=O)/C(=C\c3cccc(Oc4ccccc4)c3)S(=O)(=O)C2c2ccccc2)c1 (stereo unspecified) please
inactive

Entry CC1=C2CC(C)(C)/C=C\C(=O)/C(C)=C\C3=C[C@H](C)C[C@]3(O2)C1=O please
active

Entry COC1=C(OC)C(=O)C(Sc2ccc3ccccc3c2)=CC1=O please
inactive

Entry COC(=O)C#CC1(O)C=CC(=O)C=C1 please
inactive

Entry COC(=O)c1cc(CNCCc2c[nH]c3ccccc23)on1 please
inactive

Entry CCCCSC1=N/C(=C\c2ccccc2O)C(Cl)=N1 please
inactive

Entry COCOCCC#CCO please
inactive

Entry CCCCCCCCCCCCCCCCCc1cccc(OCOCCOC)c1CO please
inactive

Entry COc1cc2c(NCCN(C)C)nc3c4cc5c(cc4ccc3c2cc1OC)OCO5 please
inactive

Entry CN(C)CCCSc1c2ccccc2nc2cc(NCC(=O)Nc3ccccc3-c3ccccc3NC(=O)CNc3ccc4c(SCCCN(C)C)c5ccccc5nc4c3)ccc12 please
inactive

Entry Clc1ccc(CCN2CCOCC2)c(Cl)c1 please
inactive
